Structures can show the parent of a compound that is named as a salt.
Quantity kind: melting point

# annotated cases, reported melting point shown
What value of melting point has been reported for the following compound? CCCCc1nc2c(N)nc3ccccc3c2n1CCCNC(=S)NCCC 144.5 to 145.5 °C

Then CC(C)(C)OC(=O)NCCCCn1cnc2c(N)nc3ccccc3c21 ? 171 to 173 °C

Then CCCCCc1nc2c(N)nc3c(c2n1CCCCNC(=O)N1CCOCC1)CCCC3 (as salt: hydrochloride) ? 126.8 to 127.5 °C

Then CCCCc1nc2c(N)nc3ccccc3c2n1CCCCNC(=O)Nc1ccccc1 ? 185 to 187 °C

Then CCCCCCc1nc2c(N)nc3ccccc3c2n1CCCCNC(=O)Nc1ccccc1 ? 170.4 to 171.6 °C

Then Cc1nc2c(N)nc3ccccc3c2n1CCCNC(=O)N1CCOCC1 ? 226 to 228 °C

Then COCCc1nc2c(N)nc3ccccc3c2n1CCCNC(=S)NC1CCCCC1 ? 199 to 200 °C

Then Nc1nc2ccccc2c2c1ncn2CCCCNC(=O)N1CCOCC1 ? 177 to 179.5 °C

Then Nc1nc2ccccc2c2c1nc(CCCOc1ccccc1)n2CCCCNC(=O)N1CCOCC1 ? 71.5 to 72.1 °C

Then CCOCc1nc2c(N)nc3ccccc3c2n1CCCNC(=O)OC(C)(C)C ? 124 to 126 °C

Further cases:
What value of melting point has been reported for the following compound? COCCc1nc2c(N)nc3ccccc3c2n1CCCNC(=O)N1CCOCC1 194 to 196 °C

Then CCCNC(=S)NCCCn1c(CCOC)nc2c(N)nc3ccccc3c21 ? 172 to 173 °C

Then Cc1nc2c(N)nc3ccccc3c2n1CCCCNC(=O)Nc1ccccc1 ? 171.5 to 172.5 °C
